Sourced from ChEMBL document CHEMBL2429732

Reported remaining at 0.5 h, 1 µM values follow for various compounds
Assay explanation: Metabolic stability in rat liver microsomes assessed as compound remaining at 1 uM after 30 mins
Format: ADME, Microsome
Condition: read-out: Stability
Enter your answer as a number in %; do not include the unit.

Sample answers from the record:
query: Using the record for `Cn1nc(-c2ccncc2)cc1NC(=O)[C@H](Cc1ccccc1)NCc1cncs1` , report its remaining at 0.5 h, 1 µM.
result: 8

query: If you can, please state the reported remaining at 0.5 h, 1 µM value of `O=C(Nc1cc(-c2ccncc2)n[nH]1)[C@H](Cc1ccccc1)NCc1cncs1` .
result: 33

query: Fill blank: measured remaining at 0.5 h, 1 µM of the compound `O=C(Nc1cnc(-c2ccncc2)s1)[C@H](Cc1ccccc1)NCc1cncs1` is ____.
result: 5

query: Returns the measured remaining at 0.5 h, 1 µM for the input compound. Input: `CNc1cc(-c2cc(NC(=O)[C@H](Cc3ccccc3)NCc3cncs3)n(C)n2)ccn1`
result: 38

query: Name the recorded remaining at 0.5 h, 1 µM for `CNc1cc(-c2cc(NC(=O)[C@H](Cc3ccc(F)cc3)NCc3c[nH]nn3)n(C)n2)ccn1` .
result: 90

query: Endpoint output: remaining at 0.5 h, 1 µM of `O=C(Nc1cc(-c2ccncc2)nn1CC(F)(F)F)[C@H](Cc1ccccc1)NCc1cncs1` . Value?
result: 9

Please find the next compound below.
query: For the compound `CNc1cc(-c2cc(NC(=O)[C@H](Cc3ccc(F)cc3)NCc3cncs3)n(C)n2)ccn1` , what remaining at 0.5 h, 1 µM is on record?
result: 49
